- TESTED ON: Vascular endothelial growth factor receptor 2 (Homo sapiens, UniProt P35968)
- Sequence (P35968 whole entry): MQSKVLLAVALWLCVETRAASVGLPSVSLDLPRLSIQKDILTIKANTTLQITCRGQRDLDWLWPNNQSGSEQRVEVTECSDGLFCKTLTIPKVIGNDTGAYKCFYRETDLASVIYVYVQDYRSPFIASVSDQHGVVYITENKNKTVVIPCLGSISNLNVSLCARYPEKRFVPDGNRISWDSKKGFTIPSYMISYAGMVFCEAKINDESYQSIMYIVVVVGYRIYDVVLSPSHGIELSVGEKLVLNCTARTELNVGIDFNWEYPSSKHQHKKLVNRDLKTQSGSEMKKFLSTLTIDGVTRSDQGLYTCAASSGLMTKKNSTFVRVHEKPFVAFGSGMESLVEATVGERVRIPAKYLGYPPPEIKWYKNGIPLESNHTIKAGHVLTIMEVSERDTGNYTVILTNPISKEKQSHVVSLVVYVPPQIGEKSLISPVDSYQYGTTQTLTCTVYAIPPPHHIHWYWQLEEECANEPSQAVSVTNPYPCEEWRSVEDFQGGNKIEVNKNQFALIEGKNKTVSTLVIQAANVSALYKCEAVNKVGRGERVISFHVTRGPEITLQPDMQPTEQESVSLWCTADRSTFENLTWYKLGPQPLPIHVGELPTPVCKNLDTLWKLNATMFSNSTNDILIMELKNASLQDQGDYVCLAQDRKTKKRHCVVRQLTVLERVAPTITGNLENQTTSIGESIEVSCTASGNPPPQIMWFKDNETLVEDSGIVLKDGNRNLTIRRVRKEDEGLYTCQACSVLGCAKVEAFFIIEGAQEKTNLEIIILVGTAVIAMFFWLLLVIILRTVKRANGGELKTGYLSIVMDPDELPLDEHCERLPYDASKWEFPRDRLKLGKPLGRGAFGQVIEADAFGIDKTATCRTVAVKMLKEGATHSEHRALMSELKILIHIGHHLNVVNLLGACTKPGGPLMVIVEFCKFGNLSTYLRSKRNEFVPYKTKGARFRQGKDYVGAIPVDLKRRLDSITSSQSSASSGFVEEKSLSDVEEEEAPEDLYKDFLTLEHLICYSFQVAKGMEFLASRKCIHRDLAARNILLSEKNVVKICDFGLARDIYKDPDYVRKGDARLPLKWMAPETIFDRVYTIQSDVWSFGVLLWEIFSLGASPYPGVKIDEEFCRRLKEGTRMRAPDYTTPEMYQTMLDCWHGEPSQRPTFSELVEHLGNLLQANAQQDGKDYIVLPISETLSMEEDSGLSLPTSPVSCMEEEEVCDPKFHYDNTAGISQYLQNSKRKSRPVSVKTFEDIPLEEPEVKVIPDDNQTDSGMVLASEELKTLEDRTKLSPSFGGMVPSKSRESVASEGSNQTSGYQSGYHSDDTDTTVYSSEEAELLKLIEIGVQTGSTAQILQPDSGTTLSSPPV
READOUT KIND: IC50 (nM)
The response must be a number in nM with no trailing unit.

Challenge: Returns the measured IC50 for the input molecule. Input: C/C(=C/c1coc2nc(N)nc(N)c12)c1cccc2ccccc12
Response given: 2000

---

Sequence of the target: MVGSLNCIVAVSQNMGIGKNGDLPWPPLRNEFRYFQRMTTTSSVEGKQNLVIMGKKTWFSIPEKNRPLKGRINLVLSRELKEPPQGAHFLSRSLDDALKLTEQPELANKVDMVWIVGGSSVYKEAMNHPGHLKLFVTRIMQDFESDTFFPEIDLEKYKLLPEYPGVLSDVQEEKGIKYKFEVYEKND
READOUT KIND: pIC50
// field semantics: pIC50 = negative decimal log of concentration (mol/L)

Challenge: Returns the measured pIC50 for the input molecule. Input: C/C(=C/c1coc2nc(N)nc(N)c12)c1cccc2ccccc12
Response given: 5.00

Source listed as ChEMBL document CHEMBL1155389.
